// provenance: patent US20200079833A1

- system_tested: GLP-1 receptor (GLP-1R) (human, UniProt P43220 24-463)
- assay_name: cell-based or functional assay
Starred links: 1 amine or outer side, 2 acyl side, 3 side chain; linkers in the order of their positions; H or OH if unused. Non-standard residues stand in square brackets, D forms with d. Groups on a side chain read outwards from the residue. Primed or numbered codes have the meaning given here. No end group written: not given here. *: point of attachment. Dodecanoyl(12-OPh(4-COOH)) = O=C(O)c1ccc(OCCCCCCCCCCCC(=O)*)cc1; γGlu = O=C(O)[C@H](CCC(=O)[*:2])N[*:1]; Stearoyl = CCCCCCCCCCCCCCCCCC(=O)*; αMeF = C[C@](N)(Cc1ccccc1)C(=O)O; αMeK = C[C@](N)(CCCCN)C(=O)O; αMeS = C[C@](N)(CO)C(=O)O; PEG2′ = not defined here; Aib = CC(C)(N)C(=O)O
readout_name: cAMP Mean pM GLP-1R (pM)
Give bare numbers, in pM.

H[Aib]EGS[αMeF]TSDV[αMeS]S[αMeF]LEGEAAK([PEG2′-PEG2′-PEG2′-Dodecanoyl(12-OPh(4-COOH))])E[αMeF]IA[αMeF]VV[αMeK]GG-NH2 [SEQ ID NO 145]; 21

Go through the list and state cAMP Mean pM GLP-1R for each entry.
1. H[Aib]EGS[αMeF]TSDV[αMeS]S[αMeF]LEGEAA[αMeK]E[αMeF]K([PEG2′-PEG2′-γGlu-Stearoyl])A[αMeF]VV[αMeK]GG-NH2 [SEQ ID NO 106]
2. H[Aib]EGS[αMeF]TSDV[αMeS]K([PEG2′-PEG2′-γGlu-Stearoyl])[αMeF]LEGEAA[αMeK]E[αMeF]IA[αMeF]VV[αMeK]GG-NH2 [SEQ ID NO 117]
3. H[Aib]EGS[αMeF]TSDV[αMeS]S[αMeF]LK([PEG2′-PEG2′-γGlu-Stearoyl])GEAA[αMeK]E[αMeF]IA[αMeF]VV[αMeK]GG-NH2 [SEQ ID NO 114]

[6140, 25, 503]
